Target: Cruzipain (Trypanosoma cruzi) (UniProt P25779)
Sequence (P25779 123-467 limits assumed): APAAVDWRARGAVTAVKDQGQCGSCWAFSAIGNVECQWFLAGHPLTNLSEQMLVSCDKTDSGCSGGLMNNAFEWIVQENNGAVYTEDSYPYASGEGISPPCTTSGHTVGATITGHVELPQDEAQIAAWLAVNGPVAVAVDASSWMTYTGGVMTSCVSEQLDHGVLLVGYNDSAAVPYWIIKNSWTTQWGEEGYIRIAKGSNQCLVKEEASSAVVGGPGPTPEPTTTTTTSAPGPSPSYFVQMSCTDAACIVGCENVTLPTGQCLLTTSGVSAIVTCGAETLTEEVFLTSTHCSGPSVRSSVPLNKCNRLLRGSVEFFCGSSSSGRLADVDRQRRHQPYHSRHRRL
Experiment: qHTS Assay for Promiscuous and Specific Inhibitors of Cruzain (without detergent);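 also: plate controls were enzyme without inhibitor for no effect and buffer without enzyme for full effect; nearly all actives have a fitted effect of over 40% in size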
Details: purified cruzain, Z-FR-AMC fluorescence, no detergent
The campaign covered roughly 200,000 compounds. About 4,500 (2.2%) were called active. Another 12% or so got no clear call; they are omitted. Only a selection was taken, and actives are over-represented in it overall.
For each record, write down the corresponding max response, negative = inhibition.
Give bare numbers, in %.

The examples below pair each entry with its known result.
{"molecule": "Cc1cccc(Cn2c(=O)n(CCC(=O)NCCc3ccc(Cl)cc3)c(=O)c3sccc32)c1", "max response, negative = inhibition (%)": 0.837}
{"molecule": "COc1cc(OC)c(NC(=O)c2c3c(nn2C)-c2ccccc2SC3)cc1Cl", "max response, negative = inhibition (%)": -6.8}
{"molecule": "Cc1cccc(NC(=O)CSc2nc3c([nH]c4ccccc43)c(=O)n2-c2cc(C)cc(C)c2)c1", "max response, negative = inhibition (%)": -19.8}
{"molecule": "Cc1ccc(/C=N/NC(=O)CSc2nc3ccccc3o2)cc1", "max response, negative = inhibition (%)": -9.67}
{"molecule": "CS(=O)(=O)c1ccc(-c2nnc(NC(=O)c3ccc4c(c3)OCCO4)o2)cc1", "max response, negative = inhibition (%)": 0.217}

Provide max response, negative = inhibition values for the following items, in order.
1. O=C(CCn1c(=O)c2sccc2n(Cc2ccc(F)cc2)c1=O)NCc1ccc2c(c1)OCO2
2. Cc1nnc(NCc2ccccc2)c2c1nnn2Cc1ccc(F)cc1
3. CC(Sc1nc2ccccc2c(=O)n1Cc1ccco1)C(=O)c1ccccc1 (stereo unspecified)
4. O=C(CSc1nc2ccccc2o1)N1CCN(c2ccccc2)CC1

Reply text:
1. 2.68
2. 10.1
3. -8.72
4. -4.7

Provide max response, negative = inhibition values for the following items, in order.
1. Cc1ccc(NC(=O)CSc2nc3c([nH]c4ccccc43)c(=O)n2-c2ccccc2)cc1Cl
2. COc1cn(CC(=O)Nc2cccc(C)c2C)c(CN2CCCCC2)cc1=O
3. COc1ccc(C2Sc3ccccc3NC3=C2C(=O)c2ccccc23)c(OC)c1OC (stereo unspecified)
4. O=c1cc(-c2ccccc2)n2c(SCc3ccccc3)nnc2[nH]1
5. O=C(CN1CCN(c2ccc(Cl)cc2)CC1)N1CCCC1

Reply text:
[2.09, 9, -2.6, -3.24, -5.28]

Provide max response, negative = inhibition values for the following items, in order.
1. c1ccc(COc2nsnc2N2CCOCC2)cc1
2. CCCCSc1ncnc2c1sc1nc(N3CCOCC3)c3c(c12)CCCC3
3. NC(=O)c1c(NC(=O)CSc2nnc(-c3ccco3)n2N)sc2c1CCCC2
4. Cc1ccccc1-c1nc(SCC(=O)N(C)c2ccccc2)c2c(=O)n(C)c(=O)n(C)c2n1
5. Cc1cc(C)cc(NC(=O)CSc2nc3nccnc3c(=O)n2CCc2c[nH]c3ccccc23)c1
6. COc1ccc(NC(=O)Cn2c(=O)n(CCC(C)C)c(=O)c3cccnc32)cc1Cl

Reply text:
[-3.44, 3.5, -17, 8.08, -2.15, -5]

Inquiry: Need max response, negative = inhibition, item Cc1nc(SCC(=O)Nc2ccc(C(=O)O)cc2)n[nH]1
Reply text: 6.79

* * *

Molecular target: Cruzipain (Trypanosoma cruzi)
Experiment: qHTS Assay for Promiscuous and Specific Inhibitors of Cruzain (without detergent);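 also: plate controls were enzyme without inhibitor for no effect and buffer without enzyme for full effect; nearly all actives have a fitted effect of over 40% in size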
Conditions: purified cruzain, Z-FR-AMC fluorescence, no detergent
Hit rate of the full screen: of about 200,000 compounds, about 4,500 (2.2%) were called active. Not shown: some 12% with an inconclusive outcome. For the sample, actives were picked, then their nearest neighbours and some compounds at random.
For each record, write down the corresponding max response, negative = inhibition.
One number for each entry, in %.

The examples below pair each entry with its known result.
{"compound": "COC(=O)c1ccccc1NC(=O)Cn1c(=O)cc(C)c2c(C)nn(-c3cccc(Cl)c3C)c21", "assay-result": 1.01}
{"compound": "CN1CCN(C2(CNC(=O)COc3ccc(C(C)(C)C)cc3)CCCCC2)CC1", "assay-result": -0.272}
{"compound": "Cc1ccccc1C(=O)NNC(=O)CN1C(=O)c2ccccc2C1=O", "assay-result": -8.81}
{"compound": "C=CCn1c(C)cc(C(=O)CN2C(=O)c3ccccc3C2=O)c1C", "assay-result": 4.29}
{"compound": "CC(=O)N1CCCc2ccc(NS(=O)(=O)c3ccc(F)cc3F)cc21", "assay-result": 8.5}

Provide max response, negative = inhibition values for the following items, in order.
1. COc1cccc(N2CC(NC(=O)/C=C\c3ccccc3)CC2=O)c1 (stereo unspecified)
2. COc1ccc(CNC(=O)c2cc3c(=O)[nH]c4ccccc4c3s2)cc1
3. O=C(Nc1ccccc1)c1nnsc1S(=O)(=O)c1ccc(Cl)cc1
4. CC(C)(C)C(=O)c1cnc(Nc2ccccc2)s1

Reply text:
-5.97
-0.0351
-8.46
-10.8

Provide max response, negative = inhibition values for the following items, in order.
1. COc1ccc(C)cc1Nc1nc2ccccc2c2nnc(C)n12
2. O=C(NC1CC(=O)N(c2ccc(F)cc2)C1)c1cccs1 (stereo unspecified)

Reply text:
1. -0.388
2. 8.85
